For each record, write down the corresponding TGI.
tested on: HL-60(TB) leukemia; assay: NCI tumour cell line growth inhibition, 48 h
// units = µM; emit number, no label

**Query** Requested field: TGI. Item: O=C1c2cc3c(cc2-c2c1c1cc(F)c(F)cc1c(=O)n2CCCn1ccnc1)OCO3
**Result** 16.6

**Query** Requested field: TGI. Item: COc1ccc(-c2ccc(OC)c(OC)c2OC)cc1
**Result** 9.93

**Query** Requested field: TGI. Item: CC(C)(C)C[C@H]1N[C@@H](C(=O)NC2CCC(O)CC2)[C@H](c2cccc(Cl)c2F)[C@@]12C(=O)Nc1cc(Cl)ccc12 (some centres not stated)
**Result** 7.06

**Query** Requested field: TGI. Item: COC1(OC)C2(Cl)C3=CCCC=C3C1(Cl)C(Cl)=C2Cl
**Result** 33.2

**Query** Requested field: TGI. Item: COc1ccc2[nH]c(C(=O)N3CCN(C(=O)OCc4ccc5c(Cl)cc(Cl)c(O)c5n4)CC3)cc2c1
**Result** 2.85

**Query** Requested field: TGI. Item: C=C1C(=O)O[C@@H]2/C=C(/C)[C@@H](OC(C)=O)C/C=C(\C)C(O)[C@@H](OC(=O)/C(C)=C\C)C12 (some centres not stated)
**Result** 49.6

**Query** Requested field: TGI. Item: N#Cc1ccccc1NC(=O)C(=O)C(C(=O)c1ccccc1F)C1OC(=O)c2ccccc21 (configuration not stated)
**Result** 54.6

----------
test system: SW-620 colon; assay: NCI tumour cell line growth inhibition, 48 h; in the data active means GI50 below about 0.43 µM; inactive means the rest
I would appreciate it if you answered using one of these outcomes: yes for active, no for inactive

**Query** Please share the test call associated with COc1cc(N2C(=O)[C@H](Cl)C2c2ccc(SC)cc2)cc(OC)c1OC (some centres undefined) .
**Result** yes

**Query** Please share the test call associated with Cn1c(I)c(C#C[Si](C)(C)C)c(=O)n(C(=O)c2ccccc2)c1=O .
**Result** no

**Query** Please share the test call associated with OCc1ccc(N(Cc2ccc(F)cc2)Cc2ccc(F)cc2)cc1Cl .
**Result** no

**Query** Please share the test call associated with Nc1cc2c3c(cccc3c1)C(=O)N(CCN1CCCC1)C2=O .
**Result** no

----------
system: OVCAR-3 ovarian; test: NCI tumour cell line growth inhibition, 48 h; in the data active = GI50 below about 0.43 µM; inactive = the rest
I would appreciate it if you answered using one of these outcomes: active, inactive

**Query** Please share the test call associated with COc1cc2c(/C=C3\C(=O)Nc4ccccc43)c[nH]c2cc1C .
**Result** active

**Query** Please share the test call associated with COc1cc2c(cc1C)NC(=O)/C2=C/c1ccnc2ccccc12 .
**Result** inactive

**Query** Please share the test call associated with COc1ccc(-n2c(=S)sc3c(Cl)nc(C)nc32)c(OC)c1 .
**Result** inactive

**Query** Please share the test call associated with O=C(Nc1sc2c(c1C(=O)O)CCCC2)c1ccco1 .
**Result** inactive

**Query** Please share the test call associated with CCOC(=O)Nc1ccc2nc(-c3cscn3)[nH]c2c1 .
**Result** inactive

**Query** Please share the test call associated with Nc1cc2c3c(cccc3c1)C(=O)N(CCN1CCCC1)C2=O .
**Result** inactive

**Query** Please share the test call associated with OCc1ccc(N(Cc2ccc(F)cc2)Cc2ccc(F)cc2)cc1Cl .
**Result** inactive

**Query** Please share the test call associated with COc1ccc(-n2cc(-c3ccc(OC)c(OC)c3)[nH]c2=O)cc1 .
**Result** inactive

**Query** Please share the test call associated with CCCCNC(c1ccc(Cl)cc1)C(O)c1ccc(Cl)cc1 (stereo unspecified) .
**Result** inactive

**Query** Please share the test call associated with CCCCCCCC(=O)OCC/C=C/C1OC1C1OC(=O)/C=C\C=C\C(=O)N(C(C)=O)C(=O)/C=C(/C)CCC2OC2C1OC(=O)NC(C)=O (stereo unspecified) .
**Result** inactive

**Query** Please share the test call associated with COc1ccc2[nH]c(C(=O)N3CCN(C(=O)OCc4ccc5c(Cl)cc(Cl)c(O)c5n4)CC3)cc2c1 .
**Result** inactive

**Query** Please share the test call associated with O=S(=O)(NC1=NCCN1C(=S)SN1CCn2c1nsc2=S)c1ccc(Cl)cc1 .
**Result** inactive

**Query** Please share the test call associated with CCC[CH2][Sn-]([CH2]CCC)([CH2]CCC)[O]C(=O)C(C)C .
**Result** active

**Query** Please share the test call associated with CC(C)C[C@@H](N)[C@@H](O)C(=O)N[C@H](C(=O)N[C@H](C(=O)N[C@@H](CC(=O)O)C(=O)O)C(C)C)C(C)C .
**Result** inactive

**Query** Please share the test call associated with O=C(Nc1n[nH]c2cc(-c3cc(F)ccc3F)ccc12)C1CC1 .
**Result** inactive

**Query** Please share the test call associated with CCCCCCCC/C=C/CCCCCCCC1=NC(C)(C)CN1C(C)(C)CO .
**Result** inactive

----------
tested on: PC-3 prostate; experiment: NCI tumour cell line growth inhibition, 48 h; in the data active = GI50 below about 0.43 µM; inactive = the rest
I would appreciate it if you answered using one of these outcomes: active, inactive

**Query** Please share the test call associated with C[C@@]1(F)[C@H](O)[C@@H](CO)O[C@H]1n1ccc(=O)[nH]c1=O .
**Result** inactive

**Query** Please share the test call associated with COc1ccc2[nH]c(C(=O)N3CCN(C(=O)OCc4ccc5c(Cl)cc(Cl)c(O)c5n4)CC3)cc2c1 .
**Result** inactive

**Query** Please share the test call associated with Nc1cc2c3c(cccc3c1)C(=O)N(CCN1CCCC1)C2=O .
**Result** inactive

**Query** Please share the test call associated with COc1cc2c(cc1OCCNC(=O)/C=C1\C[C@H]3C=Nc4cc(OCc5ccccc5)c(OC)cc4C(=O)N3C1)N=C[C@@H]1CCCN1C2=O .
**Result** inactive

**Query** Please share the test call associated with O=C1NC(=NCCc2ccc(Cl)cc2)S/C1=C\c1ccc2ncccc2c1 .
**Result** inactive

**Query** Please share the test call associated with CC1(C)CC(C)(C)c2cc(NC(=S)Nc3ccc([N+](=O)[O-])cc3)ccc2S1 .
**Result** inactive

**Query** Please share the test call associated with O=C(Nc1sc2c(c1C(=O)O)CCCC2)c1ccco1 .
**Result** inactive

**Query** Please share the test call associated with CCC[CH2][Sn-]([CH2]CCC)([CH2]CCC)[O]C(=O)C(C)C .
**Result** active

**Query** Please share the test call associated with O=C1C(=O)c2c(nc3ccc(C(F)(F)F)cn23)-c2ccccc21 .
**Result** active

**Query** Please share the test call associated with Cn1c(I)c(C#C[Si](C)(C)C)c(=O)n(C(=O)c2ccccc2)c1=O .
**Result** inactive

**Query** Please share the test call associated with O=c1c(Cc2ccc3c(c2)OCO3)nnc2sc(-c3cc(F)c(Cl)cc3Cl)nn12 .
**Result** inactive

**Query** Please share the test call associated with Cc1cccc(N2C(=O)/C(=C/C(Cl)=C/c3ccc([N+](=O)[O-])cc3)SC2=S)c1C .
**Result** inactive

**Query** Please share the test call associated with COc1ccc(-c2ccc(OC)c(OC)c2OC)cc1 .
**Result** inactive

**Query** Please share the test call associated with CCN(CC)C(=S)SSC(C)C .
**Result** inactive

**Query** Please share the test call associated with CCOC(=O)NC(=S)N(CC(=O)c1cc(OC)c(OC)c(OC)c1)c1ccc(Cl)cc1 .
**Result** inactive

**Query** Please share the test call associated with O=C1c2cc3c(cc2-c2c1c1cc(F)c(F)cc1c(=O)n2CCCn1ccnc1)OCO3 .
**Result** active

**Query** Please share the test call associated with CC(C)C[C@@H](N)[C@@H](O)C(=O)N[C@H](C(=O)N[C@H](C(=O)N[C@@H](CC(=O)O)C(=O)O)C(C)C)C(C)C .
**Result** inactive

**Query** Please share the test call associated with [N-]=[N+]=CC(=O)CCC(N)C(=O)O (centres undefined) .
**Result** inactive

**Query** Please share the test call associated with O=S(=O)(NC1=NCCN1C(=S)SN1CCn2c1nsc2=S)c1ccc(Cl)cc1 .
**Result** inactive

----------
For each record, write down the corresponding TGI.
tested on: CAKI-1 renal; assay: NCI tumour cell line growth inhibition, 48 h

**Query** Requested field: TGI. Item: O=C1NC(=NCCc2ccc(Cl)cc2)S/C1=C\c1ccc2ncccc2c1
**Result** > 25 µM

**Query** Requested field: TGI. Item: c1ccc2c(c1)[nH]c1c2nc2ccccn21
**Result** > 100 µM

**Query** Requested field: TGI. Item: NCCO/C=C/C(N)C(=O)O (stereo unspecified)
**Result** > 100 µM

**Query** Requested field: TGI. Item: O=c1c(Cc2ccccc2)c(O)cc2n1CCC2
**Result** > 100 µM

**Query** Requested field: TGI. Item: CCC[CH2][Sn-]([CH2]CCC)([CH2]CCC)[O]C(=O)C(C)C
**Result** 0.279 µM

**Query** Requested field: TGI. Item: O=C(O)c1c(CC(Cc2ccc3c(c2)CCC3)C(=O)O)ccc2c1CCC2 (stereo unspecified)
**Result** > 100 µM
